EXPERIMENTAL SYSTEM: UniProt:Q63931
ASSAY REMARKS: Inhibition of [125I]Bolton-Hunter CCK-8 binding to cholecystokinin type A receptor in guinea pig pancreatic membranes.
pIC50: −log10 of the molar value.
Binning of pIC50 into classes: class A: < 6; class B: ≥ 6 and < 7; class C: ≥ 7

Before answering, review these 5 worked examples.
MOLECULE | GROUP
CCCCCN(CCCCC)C(=O)[C@@H](Cc1c[nH]c2ccc(O)cc12)NC(=O)c1cnc2ccccc2c1 | class C
CCCCCN(CCCCC)C(=O)[C@@H](Cc1c[nH]c2ccccc12)NC(=O)/C=C/c1cccnc1 | class A
CCCCCN(CCCCC)C(=O)[C@H](Cc1c[nH]c2ccccc12)NC(=O)Nc1ccc(C)cc1 | class A
CCCCCN(CCCCC)C(=O)[C@@H](Cc1c[nH]c2ccccc12)NC(=O)Nc1ccc(Cl)cc1 | class A
CCCCCN(CCCCC)C(=O)[C@@H](CC1C(=O)Nc2ccccc21)NC(=O)c1cnc2ccccc2c1 (stereo partly drawn) | class C

Incoming: Determine which band this molecule sits in: `CCCCCN(CCCCC)C(=O)[C@@H](Cc1c[nH]c2ccccc12)NC(=O)c1cccnc1`
Outgoing: class A

Incoming: Determine which band this molecule sits in: `CCCCCN(CCCCC)C(=O)[C@@H](Cc1c[nH]c2ccccc12)NC(=O)c1ccc(Cl)cc1`
Outgoing: class B

Incoming: Determine which band this molecule sits in: `CN(Cc1ccccc1)C(=O)[C@@H](Cc1c[nH]c2ccccc12)NC(=O)c1cnc2ccccc2c1`
Outgoing: class B

Incoming: Determine which band this molecule sits in: `CCCCCN(CCCCC)C(=O)[C@@H](Cc1c[nH]c2ccccc12)NC(=O)c1ccc2ccccc2c1`
Outgoing: class C

Incoming: Determine which band this molecule sits in: `CCCCCN(CCCCC)C(=O)[C@@H](Cc1c[nH]c2ccccc12)NC(=O)c1ccc2ncccc2c1`
Outgoing: class B

Incoming: Determine which band this molecule sits in: `CCCCCN(CCCCC)C(=O)[C@H](Cc1c[nH]c2ccccc12)NC(=O)Nc1ccc(Cl)cc1`
Outgoing: class A

Incoming: Determine which band this molecule sits in: `O=C(N[C@@H](Cc1c[nH]c2ccccc12)C(=O)O)c1ccc(Cl)cc1`
Outgoing: class A

* * *

EXPERIMENTAL SYSTEM: Cholecystokinin receptor type A (Cavia porcellus)
Sequence (Q63931 whole entry): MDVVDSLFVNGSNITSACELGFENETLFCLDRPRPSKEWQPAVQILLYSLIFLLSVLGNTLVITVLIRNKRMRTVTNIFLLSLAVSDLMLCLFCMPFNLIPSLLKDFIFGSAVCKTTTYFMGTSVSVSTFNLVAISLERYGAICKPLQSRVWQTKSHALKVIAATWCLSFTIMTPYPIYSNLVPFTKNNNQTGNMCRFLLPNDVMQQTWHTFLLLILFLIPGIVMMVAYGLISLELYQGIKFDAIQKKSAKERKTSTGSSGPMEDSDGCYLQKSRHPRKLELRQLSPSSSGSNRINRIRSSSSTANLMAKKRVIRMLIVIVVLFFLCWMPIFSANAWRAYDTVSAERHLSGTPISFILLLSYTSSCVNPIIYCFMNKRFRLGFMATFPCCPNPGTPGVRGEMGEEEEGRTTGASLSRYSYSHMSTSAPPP
ASSAY REMARKS: Inhibition of [125I]Bolton-Hunter CCK-8 binding to cholecystokinin type A receptor in guinea pig pancreatic membranes.
Binning of IC50 into classes: c1 = under 200 nM, c2 = from 200 nM up to 500 nM, c3 = 500 nM and over

MOLECULE | GROUP
CCCCCN(CCCCC)C(=O)[C@@H](Cc1c[nH]c2ccccc12)NC(=O)c1cc(O)c2ccccc2n1 | c1
CCOC(=O)CN(Cc1ccccc1)C(=O)[C@@H](Cc1c[nH]c2ccccc12)NC(=O)c1cnc2ccccc2c1 | c2
CCCCCN(CCCCC)C(=O)[C@H](Cc1c[nH]c2ccccc12)NC(=O)c1ccc(Cl)c(Cl)c1 | c3
CCCCCN(CCCCC)C(=O)[C@@H](Cc1c[nH]c2ccccc12)NC(=O)c1ccc2ccccc2n1 | c1
CCCCCN(CCCCC)C(=O)[C@@H](Cc1c[nH]c2ccccc12)NC(=O)c1ccc2cccc(O)c2n1 | c2

Incoming: Determine which band this compound sits in: `C[C@H](NC(=O)[C@@H](Cc1c[nH]c2ccccc12)NC(=O)c1cnc2ccccc2c1)c1ccccc1`
Outgoing: c1

Incoming: Determine which band this compound sits in: `CCCCCN(CCCCC)C(=O)[C@@H](Cc1c[nH]c2ccccc12)NC(=O)c1c[nH]c2ccccc12`
Outgoing: c2

Incoming: Determine which band this compound sits in: `CCCCCN(CCCCC)C(=O)[C@@H](Cc1c[nH]c2ccccc12)NC(=O)c1ccc(Cl)c(Cl)c1`
Outgoing: c1

* * *

Overview of recorded pIC50 for various molecules
EXPERIMENTAL SYSTEM: Cholecystokinin receptor type A (Cavia porcellus, UniProt Q63931)
Sequence (Q63931 whole entry): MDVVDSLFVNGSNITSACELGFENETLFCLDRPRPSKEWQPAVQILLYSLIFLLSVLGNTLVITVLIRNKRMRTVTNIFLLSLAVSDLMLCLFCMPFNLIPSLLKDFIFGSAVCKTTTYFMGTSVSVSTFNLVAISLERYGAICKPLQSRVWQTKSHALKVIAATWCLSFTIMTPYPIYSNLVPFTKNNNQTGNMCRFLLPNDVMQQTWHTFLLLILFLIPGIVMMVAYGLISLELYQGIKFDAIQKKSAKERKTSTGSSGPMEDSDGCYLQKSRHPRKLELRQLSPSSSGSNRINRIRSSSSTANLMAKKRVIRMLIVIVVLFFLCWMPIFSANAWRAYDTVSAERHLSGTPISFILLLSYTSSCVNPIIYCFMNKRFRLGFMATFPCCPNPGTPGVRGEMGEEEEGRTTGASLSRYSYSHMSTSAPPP
ASSAY REMARKS: Inhibition of [125I]Bolton-Hunter CCK-8 binding to cholecystokinin type A receptor in guinea pig pancreatic membranes.
Please keep in mind that pIC50 is minus log10 of the molar concentration; only the number is needed.

Known results for molecules:
MOLECULE | EXPERIMENTAL VALUE
CCCCCN(CCCCC)C(=O)[C@@H](Cc1c[nH]c2ccccc12)NC(=O)c1cccc2ccccc12 | 6.30
CCCCCN(CCCCC)C(=O)[C@@H](Cc1c[nH]c2ccccc12)NC(=O)Nc1cccc(C)c1 | 5.96
CCCCCN(CCCCC)C(=O)[C@@H](CCC(=O)O)NC(=O)c1cc(O)c2cccc(O)c2n1 | 8.15
CCCCCN(CCCCC)C(=O)[C@@H](Cc1c[nH]c2ccccc12)NC(=O)c1cc2ccccc2cn1 | 6.06
CCCCCN(CCCCC)C(=O)[C@H](Cc1c[nH]c2ccccc12)NC(=O)Nc1cccc(C)c1 | 5.82

Incoming: Query pIC50 for `CCCCCN(CCCCC)C(=O)[C@H](Cc1c[nH]c2ccccc12)NC(=O)c1cc2ccccc2[nH]1`
Outgoing: 6.28

Incoming: Query pIC50 for `C[C@@H](NC(=O)[C@@H](Cc1c[nH]c2ccccc12)NC(=O)c1cnc2ccccc2c1)c1ccccc1`
Outgoing: 6.09

Incoming: Query pIC50 for `CCCCCN(CCCCC)C(=O)[C@H](Cc1c[nH]c2ccccc12)NC(=O)c1ccc(Cl)cc1`
Outgoing: 6.32

Incoming: Query pIC50 for `CCCCCN(CCCCC)C(=O)[C@H](Cc1c[nH]c2ccc(F)cc12)NC(=O)c1cnc2ccccc2c1`
Outgoing: 7.32

src = ChEMBL document CHEMBL1125805
